- System: HTT mRNA
- protocol: Gene panel canonical junction qPCR assay, decrease in CJ mRNA, Table 3
- Format: cell-based
- run-conditions: decrease in CJ mRNA levels, canonical junction qPCR, gene panel
observed-property: IC50

Exercise: Indicate the recorded IC50 value for this molecule: COc1nc2c(C(=O)Nc3cc(F)c4nn(C)cc4c3)ccc(N3CCN[C@@H](C(C)(C)C)C3)c2s1
Solution: > 10 µM

Exercise: Indicate the recorded IC50 value for this molecule: CC(=O)NCc1nc(C)cn2cc(NC(=O)c3ccc(N4CCC(NC5CC5)CC4)c4cn(C)nc34)nc12
Solution: > 10 µM

Exercise: Indicate the recorded IC50 value for this molecule: Cc1cn2cc(NC(=O)c3ccc(N4CCC(NC5CC5)CC4)c4cn(C)nc34)nc2c(Cn2cnc3c(N)ncnc32)n1
Solution: > 10 µM

Exercise: Indicate the recorded IC50 value for this molecule: COc1nc2c(C(=O)Nc3cc(F)c4nn(C)cc4c3)ccc(N3C[C@H](C)N[C@@H](C)C3)c2s1
Solution: < 0.1 µM

----------
- Tested on: HTT mRNA
- protocol: Splicing RT-qPCR assay (THP), Table 2A
- Format: cell-based
- run-conditions: Table 2A (THP), CJ mRNA decrease, read-out: HTT CJ (decrease in canonical junction mRNA, IC50)
Kindly supply the reported IC50 values for the records listed here.

Exercise: Indicate the recorded IC50 value for this compound: Cc1cn2cc(NC(=O)c3ccc(N4CC(C5CNC5)C4)c4cn(C)nc34)nc2c(C)n1 [Compound 498]
Solution: > 10 µM

Exercise: Indicate the recorded IC50 value for this compound: CCNC1CCN(c2ccc(C(=O)Nc3cc(F)c4nc(C)oc4c3)c3nn(C)cc23)CC1 [Compound 200]
Solution: 0.1 to 1 µM

Exercise: Indicate the recorded IC50 value for this compound: CNC1CCN(c2ccc(NC(=O)c3cc4cc(C)nn4cc3OC)c3nn(C)cc23)CC1 [Compound 520]
Solution: > 10 µM

Exercise: Indicate the recorded IC50 value for this compound: CCNC1CCN(c2ccc(C(=O)Nc3cc(CO)c4nc(C)cn4c3)c3nn(C)cc23)CC1 [Compound 329]
Solution: > 10 µM

----------
- System: MYB mRNA
- protocol: Gene panel canonical junction qPCR assay, decrease in CJ mRNA, Table 3
- Type: cell-based
- run-conditions: decrease in CJ mRNA levels, canonical junction qPCR, gene panel
pIC50: −log10 of the molar value.
observed-property: pIC50

Exercise: Look up and report pIC50, with MYB mRNA as system, for CCNC1CCN(c2ccc(C(=O)Nc3cc(CS(=O)(=O)N(C)C)c4nn(C)cc4c3)c3nn(C)cc23)CC1
Solution: < 5.00

Exercise: Look up and report pIC50, with MYB mRNA as system, for COc1cc2nn(C)cc2cc1NC(=O)c1ccc(N2CCC(NC3CC3)CC2)n2cc(C)nc12
Solution: 6.00 to 7.00

Exercise: Look up and report pIC50, with MYB mRNA as system, for COc1nc2c(N3C[C@H](C)N[C@@H](C)C3)ccc(C(=O)Nc3cc(F)c4nn(C)cc4c3)c2o1
Solution: 6.00 to 7.00

Exercise: Look up and report pIC50, with MYB mRNA as system, for COc1cc2nn(C)cc2cc1NC(=O)c1c(F)cc(N2CCC(NC3CC3)CC2)c2cc(C)nn12
Solution: < 5.00

Exercise: Look up and report pIC50, with MYB mRNA as system, for Cc1cn2cc(NC(=O)c3ccc(N4CCC(NC5CC5)CC4)c4cn(C)nc34)nc2c(CN2CCCS2(=O)=O)n1
Solution: < 5.00

Exercise: Look up and report pIC50, with MYB mRNA as system, for CNC1CN(c2ccc(C(=O)Nc3cn4cc(C)nc(CNS(C)(=O)=O)c4n3)c3nn(C)cc23)C1
Solution: 6.00 to 7.00

Exercise: Look up and report pIC50, with MYB mRNA as system, for CNCC1CN(c2ccc(C(=O)Nc3cc(F)c4nn(C)cc4c3)c3nc(OC)sc23)C1
Solution: > 7.00

Exercise: Look up and report pIC50, with MYB mRNA as system, for C[C@H]1CN(c2ccc(C(=O)Nc3cc(F)c4nn(C)cc4c3)c3nc(N)sc23)C[C@H](C)N1
Solution: > 7.00

Exercise: Look up and report pIC50, with MYB mRNA as system, for Cc1cn2cc(NC(=O)c3ccc(N4C[C@@H](C)N[C@@H](C)C4)c4c3OCO4)cc(F)c2n1
Solution: 6.00 to 7.00

Exercise: Look up and report pIC50, with MYB mRNA as system, for COc1nc2c(C(=O)Nc3cc(F)c4nn(C)nc4c3)ccc(N3C[C@H](C)N[C@@H](C)C3)c2s1
Solution: > 7.00

Exercise: Look up and report pIC50, with MYB mRNA as system, for COc1c(NC(=O)c2ccc(N3CCC(NC4CC4)CC3)n3cc(C)nc23)cn2cc(C)nc(C)c12
Solution: 5.00 to 6.00

Exercise: Look up and report pIC50, with MYB mRNA as system, for Cc1cn2c(N3CCC(NC4CC4)CC3)ccc(C(=O)Nc3cc(CO)c4nn(C)cc4c3)c2n1
Solution: 6.00 to 7.00

Exercise: Look up and report pIC50, with MYB mRNA as system, for COc1nc2c(C(=O)Nc3cc(F)c4nn(C)cc4c3)ccc(N3CCC4(CCCN4)CC3)c2s1
Solution: > 7.00

Exercise: Look up and report pIC50, with MYB mRNA as system, for COc1cc2nn(C)cc2cc1NC(=O)c1c(F)cc(N2CCC(NC3CC3)CC2)c2nc(C)sc12
Solution: 5.00 to 6.00

Exercise: Look up and report pIC50, with MYB mRNA as system, for COc1cc2c(N3C[C@H](C)N[C@@H](C)C3)ccc(C(=O)Nc3cc(F)c4nn(C)cc4c3)c2o1
Solution: > 7.00

----------
- Test system: MYB mRNA
- protocol: Gene panel canonical junction qPCR assay, decrease in CJ mRNA, Table 3
- Type: cell-based
- run-conditions: decrease in CJ mRNA levels, canonical junction qPCR, gene panel
pIC50: −log10 of the molar value.
observed-property: pIC50

Exercise: Indicate the recorded pIC50 value for this compound: Cc1cn2cc(NC(=O)c3ccc(N4CCC(NC5CC5)CC4)c4cn(C)nc34)nc2c(CNc2nccs2)n1
Solution: < 5.00

Exercise: Indicate the recorded pIC50 value for this compound: Cc1cn2cc(NC(=O)c3ccc(N4CCC(NC5CC5)CC4)c4cn(C)nc34)nc2c(CNC(=N)N)n1 [Compound 754, bis(2,2,2-trifluoroacetate)]
Solution: < 5.00

Exercise: Indicate the recorded pIC50 value for this compound: Cc1cn2cc(NC(=O)c3ccc(N4CCC(NC5CC5)CC4)c4cn(C)nc34)nc2c(Cn2ccnn2)n1
Solution: < 5.00

Exercise: Indicate the recorded pIC50 value for this compound: COc1cc2nn(C)cc2cc1NC(=O)c1cc(C)c(N2CCC(NC3CC3)CC2)c2cn(C)nc12
Solution: < 5.00

Exercise: Indicate the recorded pIC50 value for this compound: CCNC1CCN(c2ccc(C(=O)Nc3cc(CNS(C)(=O)=O)c4nc(C)cn4c3)c3nn(C)cc23)CC1
Solution: 5.00 to 6.00

Exercise: Indicate the recorded pIC50 value for this compound: Cc1cn2cc(NC(=O)c3ccc(N4CCC(NC5CC5)CC4)n4nc(C)nc34)cc(F)c2n1
Solution: > 7.00

Exercise: Indicate the recorded pIC50 value for this compound: COc1nc2c(C(=O)Nc3cccc4c3nnn4C)ccc(N3C[C@H](C)N[C@@H](C)C3)c2s1
Solution: < 5.00

----------
- Tested on: HTT mRNA
- protocol: Splicing RT-qPCR assay (THP), Table 2A
- Format: cell-based
- run-conditions: Table 2A (THP), CJ mRNA decrease, read-out: HTT CJ (decrease in canonical junction mRNA, IC50)
Where a name gives a salt, the structure may show the parent alone.
observed-property: IC50

Exercise: Indicate the recorded IC50 value for this molecule: CCNC1CCN(c2ccc(C(=O)Nc3cc(Oc4ccc(C#N)cc4)c4nc(C)cn4c3)c3nn(C)cc23)CC1 [Compound 352]
Solution: 1 to 10 µM

Exercise: Indicate the recorded IC50 value for this molecule: COc1cc2nn(C)cc2cc1NC(=O)c1ccc(N2CCC3NCCC3C2)c2cn(C)nc12 (centres unmarked) [Compound 543]
Solution: 1 to 10 µM

Exercise: Indicate the recorded IC50 value for this molecule: CNC1CCN(c2ccc(C(=O)Nc3cn4cc(C)nc(C)c4n3)c3nn(C)cc23)C1 (centres unmarked) [Compound 505]
Solution: 0.1 to 1 µM

Exercise: Indicate the recorded IC50 value for this molecule: Cn1cc2cc(NC(=O)c3c(F)cc(N4CCC(NC5CC5)CC4)c4cn(C)nc34)c(OC3CC3)cc2n1 [Compound 438]
Solution: > 10 µM

Exercise: Indicate the recorded IC50 value for this molecule: Cc1cn2cc(NC(=O)c3ccc(N4CCC(NC5CC5(C)C)CC4)c4cn(C)nc34)cc(F)c2n1 (centres unmarked) [Compound 205]
Solution: 0.1 to 1 µM

Exercise: Indicate the recorded IC50 value for this molecule: Cc1cc2cc(NC(=O)c3c(F)cc(N4CCC(NC5CC5)CC4)c4cn(C)nc34)oc2c(C)n1 [Compound 456]
Solution: > 10 µM

Exercise: Indicate the recorded IC50 value for this molecule: Cc1cc2cc(NC(=O)c3ccc(N4CCC(NC5CC5)CC4)c4cn(C)nc34)n(C)c2c(C)n1 [Compound 469]
Solution: 1 to 10 µM

Exercise: Indicate the recorded IC50 value for this molecule: Cc1cn2cc(NC(=O)c3c(F)cc(N4CCC(NC5CC5)CC4)c4cn(C)nc34)c(Oc3ccccc3)cc2n1 [Compound 417]
Solution: > 10 µM

Exercise: Indicate the recorded IC50 value for this molecule: Cc1cn2nc(C(=O)Nc3ccc(N4C[C@@H](C)N[C@@H](C)C4)c4cc[nH]c34)cc(C)c2n1 [Compound 237]
Solution: 1 to 10 µM

Exercise: Indicate the recorded IC50 value for this molecule: CCNC1CCN(c2ccc(C(=O)Nc3cc(C(=O)NC)c4nc(C)cn4c3)c3nn(C)cc23)CC1 [Compound 319, trifluoroacetate]
Solution: > 10 µM

Exercise: Indicate the recorded IC50 value for this molecule: CCNC1CCN(c2ccc(C(=O)Nc3cn4cc(C)nc(C)c4c3F)c3nn(C)cc23)CC1 [Compound 523]
Solution: 1 to 10 µM

Exercise: Indicate the recorded IC50 value for this molecule: CCNC1CCN(c2ccc(C(=O)Nc3ccc4nc(C)cn4c3)c3nn(C)cc23)CC1 [Compound 176]
Solution: > 10 µM

Exercise: Indicate the recorded IC50 value for this molecule: CCNC1CCN(c2ccc(C(=O)Nc3cc(C(N)=O)c4nc(C)cn4c3)c3nn(C)cc23)CC1 [Compound 317, 2,2,2-trifluoroacetate]
Solution: > 10 µM

Exercise: Indicate the recorded IC50 value for this molecule: COc1cc2nn(C)cc2c(Cl)c1NC(=O)c1c(F)cc(N2CCC(NC3CC3)CC2)c2cn(C)nc12 [Compound 445, trifluoroacetate]
Solution: > 10 µM

Exercise: Indicate the recorded IC50 value for this molecule: COc1c(NC(=O)c2ccc(N3CCC(NC4CC4)CC3)c3cn(C)nc23)cn2cc(C)nc(C)c12 [Compound 457]
Solution: 1 to 10 µM

Exercise: Indicate the recorded IC50 value for this molecule: CCNC1CCN(c2ccc(C(=O)Nc3cc(Oc4cccc(C)c4)c4nc(C)cn4c3)c3nn(C)cc23)CC1 [Compound 327]
Solution: 1 to 10 µM

Exercise: Indicate the recorded IC50 value for this molecule: Cc1cn2cc(NC(=O)c3c(F)cc(N4CCC(NC5CC5)CC4)c4cn(C)nc34)nc(Oc3ccccn3)c2n1 [Compound 408]
Solution: 1 to 10 µM

Exercise: Indicate the recorded IC50 value for this molecule: COc1cc2nn(C)cc2cc1C(=O)Nc1ccc(N2CCNCC2)c2cn(C)nc12 [Compound 489]
Solution: > 10 µM

Exercise: Indicate the recorded IC50 value for this molecule: CN[C@H]1CCN(c2c(O)cc(C(=O)Nc3cc(F)c4nc(C)cn4c3)c3nn(C)cc23)C1 [Compound 149]
Solution: > 10 µM

Exercise: Indicate the recorded IC50 value for this molecule: CCNC1CCN(c2ccc(C(=O)Nc3cn4cc(C5CC5)nc(C)c4n3)c3nn(C)cc23)CC1 [Compound 309]
Solution: > 10 µM

Exercise: Indicate the recorded IC50 value for this molecule: Cc1cn2cc(NC(=O)c3ccc(N4C[C@@H](C)N[C@@H](C)C4)c4nn(C)nc34)cc(F)c2n1 [Compound 252, trifluoroacetate]
Solution: 0.1 to 1 µM

Exercise: Indicate the recorded IC50 value for this molecule: COCC1(N[C@@H]2CCN(c3ccc(C(=O)Nc4cc(F)c5nc(C)cn5c4)c4nn(C)cc34)C2)CC1 [Compound 119]
Solution: > 10 µM

Exercise: Indicate the recorded IC50 value for this molecule: COc1cc2nn(C)cc2cc1NC(=O)c1ccc(N2CC3CNCC3C2)c2cn(C)nc12 (centres unmarked) [Compound 514]
Solution: 1 to 10 µM

Exercise: Indicate the recorded IC50 value for this molecule: Cc1cn2cc(NC(=O)c3c(F)cc(N4CCC(NC5CC5)CC4)c4cn(C)nc34)c(OC3CC3)c(F)c2n1 [Compound 382]
Solution: < 0.1 µM

Exercise: Indicate the recorded IC50 value for this molecule: CCNC1CCN(c2cc(F)c(C(=O)Nc3cc4cn(C)nc4cc3OC)c3nn(C)cc23)CC1 [Compound 387]
Solution: 0.1 to 1 µM

Exercise: Indicate the recorded IC50 value for this molecule: CCNC1CCN(c2cc(F)c(C(=O)Nc3cn4cc(C5CC5)nc4c(F)c3OC)c3nn(C)cc23)CC1 [Compound 304]
Solution: > 10 µM

Exercise: Indicate the recorded IC50 value for this molecule: COc1cc2nn(C)cc2cc1NC(=O)c1ccc(N2CCC(NC3CC3)CC2)c2c(CO)n(C)nc12 [Compound 522]
Solution: 1 to 10 µM

Exercise: Indicate the recorded IC50 value for this molecule: Cc1cn2cc(NC(=O)c3ccc(N4CC5(CNCCO5)C4)c4cn(C)nc34)nc2c(C)n1 [Compound 497]
Solution: > 10 µM

Exercise: Indicate the recorded IC50 value for this molecule: Cc1cn2cc(NC(=O)c3ccc(N4CC5(CCNCC5)C4)c4cn(C)nc34)nc2c(C)n1 [Compound 562]
Solution: > 10 µM

Each recorded value in this set is attributed to patent US20260285853A1.
